- testName: amyloid nucleation score (Sup35N fusion, yeast selection) (log enrichment); library NNK1; higher = more nucleation; inactive = no reads after selection;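 further: zero at mode of non-aggregating sequences after 7 days selection at 30°C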
As shown below, each of these substances has a reported amyloid nucleation score value.
experimentalReadout: amyloid nucleation score

>>> reported("SFDNCLFVVVAAAIVNQPVC")
5.83
>>> reported("ATSPLCCRH")
0.022
>>> reported("TVFGVL")
0.705
>>> reported("YRVYRRLSV")
0.526
>>> reported("MLRAGY")
-0.292
>>> reported("LLWAPILCLTGDNTVGFLSP")
3.3
>>> reported("CFVHLLGIIYLSLDRNYCRE")
0.272
>>> reported("YFTNPRCRLDAHGGFANQWW")
-0.977
>>> reported("LIARMWANFRRGVSITARF")
0.87
>>> reported("IESWCLMSVNSDGARWSSRF")
-0.872
>>> reported("GFSLSPRAWRTGGVWAECAE")
0.7
>>> reported("YRSSGWRNTSSRAVLCCLDE")
-0.356
>>> reported("NMTVITVVSWLCFVRRTHNA")
-1.06
>>> reported("YMCHKRAFV")
3.32
>>> reported("MLYKIRDQIYIRHGSFEG")
0.224
>>> reported("WYGDSPECEV")
0.141
>>> reported("GDYVRWVRSGYLMQLLNEDS")
-0.379
>>> reported("KVVKCS")
-0.97
>>> reported("FFLILRVRLYCTSICQAYAN")
0.451
>>> reported("RESASSNGYVYILCMQRVPR")
0.102
>>> reported("LVNYLICWT")
-0.078
>>> reported("RIVSSFLLSVVGCGMEVVRV")
0.349
>>> reported("NLQVKFVVYIMPLQKD")
0.747
>>> reported("ERVGAGVGSNERRD")
0.646
>>> reported("RARGAIYTVT")
-0.894
>>> reported("ELFSAIPATIHCI")
-0.057
>>> reported("GFMICVADTGTANSSYVDVF")
-0.201
>>> reported("VLYLDLFWRPPSLKGLL")
-0.17
>>> reported("WSLLCDCASGQCVMR")
0.005
>>> reported("HDSLKFVKQSFFCPEVYIPG")
-0.596
>>> reported("CIDMFNLLNLKHASYWVVVY")
-0.563
>>> reported("VCKITDLAARCHSREFWESR")
0.253
>>> reported("HSGFNVAAYFTSMN")
0.467

* * *

- testName: amyloid nucleation score (Sup35N fusion, yeast selection) (log enrichment); library NNK1; higher = more nucleation; inactive = no reads after selection
experimentalReadout: amyloid nucleation score

>>> reported("FLRNNKIPVVFFSPS")
"inactive"
>>> reported("FLNFPYMLRDCLMIRFIELE")
"inactive"
>>> reported("SGGPWVNCNFNT")
0.494
>>> reported("SIIFGVKTFSVFSKIYGLCW")
3.3
>>> reported("QNYSLNWSITGLVRLLSRIC")
-0.73
>>> reported("LYDRCYGIRSSAIEGEEYKR")
0.806
>>> reported("FYTCCMSYVVWIMHVRRLAG")
0.774
>>> reported("KFIFVGNGECMRPGCSDDSL")
1.99
>>> reported("IEDTGIYRSVTFTVAMTYTV")
-0.373
>>> reported("RGNWIRS")
-0.533

* * *

- testName: amyloid nucleation score (Sup35N fusion, yeast selection) (log enrichment); library NNK3; higher = more nucleation; inactive = no reads after selection
experimentalReadout: amyloid nucleation score

>>> reported("YWNIMIGYLLKSTGSGRSA")
"inactive"
>>> reported("INWTRLRSRSEVWDTGRVWT")
"inactive"
>>> reported("LERYWCTNRGFNRWMQAYKD")
"inactive"
>>> reported("PARGLDQEMSSKVFMRGYLA")
"inactive"
>>> reported("ICQWDVKMPRCATG")
"inactive"
>>> reported("MTAVVDRTSNGYSYVTGHLL")
"inactive"
>>> reported("SFCIIY")
"inactive"
>>> reported("YYFLLIGSW")
"inactive"
>>> reported("FSSQYMSCIVRRHGGNLDAC")
0.033
>>> reported("LLTFSMVDKFLSDNSYLNGI")
"inactive"
>>> reported("RAHICSYSFAIYVFVCN")
0.661
>>> reported("FLDSLYKRGCNKFGQLWR")
"inactive"
>>> reported("GRNYFENVWIHRLYSSCLVM")
1.94
>>> reported("GHSSSNMGNVHFKFLC")
"inactive"
>>> reported("YVIMAFLAV")
"inactive"
>>> reported("GPAVWPKWVSLAKWYPSEI")
"inactive"
>>> reported("MVYIKILHFVILMSMHFN")
"inactive"
>>> reported("GTTYTAHYAWSTVGDIWSLH")
"inactive"
>>> reported("TCCNQRFGVRWNIYYGSDVW")
0.742
>>> reported("IGSSRIDFSSRNYGV")
0.576
>>> reported("ISPAESFPSSPERIHIVD")
-0.789
>>> reported("VWYAYRLYQTWKITNVLIPW")
"inactive"
>>> reported("FISSLSRSFL")
"inactive"
>>> reported("LHYICQKLGGMWMVLVCRAC")
"inactive"
>>> reported("RFNFNFFRSRSHLSVFTQFG")
"inactive"
>>> reported("RSTVLIPWVDNTCTDQSSGW")
0.25
>>> reported("KNNGTSKGVCRLQIMLFGLA")
"inactive"

* * *

- testName: amyloid nucleation score (Sup35N fusion, yeast selection) (log enrichment); library NNK1; higher = more nucleation; inactive = no reads after selection
experimentalReadout: amyloid nucleation score

>>> reported("NKTVVLDHPHVCFPGSRSHL")
"inactive"
>>> reported("YCTCRLVKFEVDW")
"inactive"
>>> reported("IKALMIC")
"inactive"

* * *

- testName: amyloid nucleation score (Sup35N fusion, yeast selection) (log enrichment); library NNK3; higher = more nucleation; inactive = no reads after selection
experimentalReadout: amyloid nucleation score

>>> reported("RNGMISQAYSVP")
"inactive"
>>> reported("TNTPIMKCELHTRDFVKVIS")
"inactive"
>>> reported("LGMCSHESYNLHEEICIW")
"inactive"
>>> reported("KVLMST")
-0.443
>>> reported("GTQRVAIEDSGVIR")
"inactive"
>>> reported("GVPIWCEKYKLILQKNWLFK")
"inactive"
>>> reported("IRGVECNRLGIYLLCVTHSM")
-0.624
>>> reported("TMSVMPLTVQVLVGRISDGQ")
1.71
>>> reported("LGRCDVIVKEFVTIIA")
"inactive"
>>> reported("QKEDFIVSLWYRVRLFDRNS")
"inactive"

* * *

- testName: amyloid nucleation score (Sup35N fusion, yeast selection) (log enrichment); library NNK2; higher = more nucleation; inactive = no reads after selection
As shown below, each of these substances has a reported amyloid nucleation score value.
experimentalReadout: amyloid nucleation score

>>> reported("SFLFVFSRTGFDCLVDFCFE")
-1.76
>>> reported("NYCYLFLTYCWVQRMSEGFS")
2.88
>>> reported("FYCCIITYLDMA")
6.67
>>> reported("RLSLQTVRLPLLYIWDEDSW")
3.43
>>> reported("RDIFILSLLDRMSEGTKRIR")
3.86
>>> reported("GTKKARSGARQCLGWEILWM")
0.516
>>> reported("YLLFNLHAVYLLVSGEPSPC")
0.405
>>> reported("YVTFMKGIGLSVFSADIQ")
1.83
>>> reported("ILVWLGQTEEASVDRRAQHT")
0.43
>>> reported("RTSTYLCMAVNKGVFVSNSV")
-0.576
>>> reported("DMVCRY")
-0.272
>>> reported("VVPIGETR")
1.49
>>> reported("LANYYTDSVRPSCGY")
-0.022
>>> reported("RINMPTYLLNWFSCHNYRFS")
3.98
>>> reported("IVLYVHTTLLAGS")
4.6
>>> reported("RSTERCNYTCVNWVVL")
7.75
>>> reported("CEFALYAFWCCIYLRFNKYS")
-0.606
>>> reported("TQMTMEGAYPCCVVVP")
0.903
>>> reported("ELTGYT")
-0.388
>>> reported("ASDRGI")
0.532
>>> reported("GLIVKLMGIFRNRSETSESQ")
4.47
>>> reported("YGESVHTR")
-0.446
>>> reported("LIERDNTWRATSRCITIESG")
1.17
>>> reported("FYRHCFVVTNKRAPSKSRSK")
4.61

* * *

- testName: amyloid nucleation score (Sup35N fusion, yeast selection) (log enrichment); library NNK2; higher = more nucleation; inactive = no reads after selection
experimentalReadout: amyloid nucleation score

>>> reported("GIKHLKGTNDTSMYCHVSIV")
0.298
>>> reported("WSKLYTFIFLASNKLLTWPC")
"inactive"
>>> reported("DCLRCNHYTVCNMYDRFFLL")
"inactive"
>>> reported("KQMFRQFLCGNVYNWRYMRA")
0.298
>>> reported("NYLDLFTRVWKS")
"inactive"
>>> reported("VSTRSLF")
"inactive"

Cited source for all entries: the supplement of paper PMC12042874
